The origin of these recorded values is ChEMBL document CHEMBL4145694.

experiment: in vivo; conditions: Sprague-Dawley CD, rat, plasma, sc, 5 mg/kg
quantity.kind: Tmax (h)

                                 smiles_str  quantity_kind  reported
0  CC1CCN(C[C@@H](NC(=O)[C@H]2Cc3ccc(O)cc3CN2)C(C)C)CC1           Tmax         1

----------
target: Kappa-type opioid receptor (Homo sapiens) (UniProt P41145); assay: Antagonist activity at human kappa-opioid receptor expressed in CHO cell membranes assessed as inhibition of U69593-induced [35S]GTPgammaS binding incubated for 60 mins by scintillation counting method; assay type: functional
Sequence (P41145 whole entry): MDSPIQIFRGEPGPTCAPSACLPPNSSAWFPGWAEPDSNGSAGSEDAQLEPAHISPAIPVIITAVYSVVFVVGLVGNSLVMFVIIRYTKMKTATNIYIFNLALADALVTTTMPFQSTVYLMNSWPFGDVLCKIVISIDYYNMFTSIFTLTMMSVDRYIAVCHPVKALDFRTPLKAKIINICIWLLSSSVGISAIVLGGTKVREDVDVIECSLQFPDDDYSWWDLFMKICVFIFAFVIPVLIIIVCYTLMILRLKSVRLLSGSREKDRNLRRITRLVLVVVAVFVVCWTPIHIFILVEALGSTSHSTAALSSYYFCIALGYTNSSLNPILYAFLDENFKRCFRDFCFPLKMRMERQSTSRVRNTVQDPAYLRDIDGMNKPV
Classify on Ke using class 0 (below 5 nM), class 1 (5 nM to below 20 nM), class 2 (20 nM or more)

>>> df
                                    molecule  label_class
 0  CC(C)[C@@H](CN1CCC(C(F)(F)F)CC1)NC(=O)[C@H]1Cc2ccc(O)cc2CN1      class 0
 1  CC(C)[C@@H](CN1CCC(C(F)F)CC1)NC(=O)[C@H]1Cc2ccc(O)cc2CN1      class 0
 2  COC1CCN(C[C@@H](NC(=O)[C@H]2Cc3ccc(O)cc3CN2)C(C)C)CC1      class 1
 3  CC(C)[C@@H](CN1CCC(C#N)CC1)NC(=O)[C@H]1Cc2ccc(O)cc2CN1      class 1
 4  CC(C)[C@@H](CN1CCN(C)CC1)NC(=O)[C@H]1Cc2ccc(O)cc2CN1      class 2
 5  CCC1CCN(C[C@@H](NC(=O)[C@H]2Cc3ccc(O)cc3CN2)C(C)C)CC1      class 0
 6  CC(C)[C@@H](CN1CCCCC1C)NC(=O)[C@H]1Cc2ccc(O)cc2CN1 (mixture of isomers)      class 1
 7  CC(C)[C@@H](CN1CCC(F)(F)CC1)NC(=O)[C@H]1Cc2ccc(O)cc2CN1      class 1
 8  CC(C)[C@@H](CN1CCC(N(C)C)CC1)NC(=O)[C@H]1Cc2ccc(O)cc2CN1      class 1
 9  CC(C)CN(CC(C)C)C[C@@H](NC(=O)[C@H]1Cc2ccc(O)cc2CN1)C(C)C      class 2
10  CC(C)[C@@H](CN1CCC(C(N)=O)CC1)NC(=O)[C@H]1Cc2ccc(O)cc2CN1      class 0
11  CC(C)[C@@H](CN1CCOCC1)NC(=O)[C@H]1Cc2ccc(O)cc2CN1      class 2

----------
assay: AUClast in plasma of Sprague-Dawley CD rat at 5 mg/kg, sc administered as single dose measured over 1 to 168 hrs post dose by LC/MS-MS method; assay type: ADME, organism-based; set-up: dose 5 mg/kg, route subcutaneous, time 0 - last
quantity.kind: AUC(0-t)

>>> df
                                 smiles_str  quantity_kind      reported
0  CC1CCN(C[C@@H](NC(=O)[C@H]2Cc3ccc(O)cc3CN2)C(C)C)CC1       AUC(0-t)  1860 ng·h/mL

----------
assay: Total AUC in plasma of Sprague-Dawley CD rat at 5 mg/kg, sc administered as single dose measured over 1 to 168 hrs post dose by LC/MS-MS method; format: ADME, organism-based; design: dose 5 mg/kg, route subcutaneous, time AUCmax
quantity.kind: AUC (ng·h/mL)

In [3]: df
Out[3]:
                                 smiles_str  reported
0  CC1CCN(C[C@@H](NC(=O)[C@H]2Cc3ccc(O)cc3CN2)C(C)C)CC1      1900
